molecular target: Protein cereblon/CREB-binding protein (Homo sapiens) (UniProt Q92793+Q96SW2); assay: PROTAC activity at CRBN/HiBiT-tagged CBP in human HAP1 cells assessed as total cumulative degradation by measuring AUC at 10 nM measured over 24 hrs by luminescence based analysis; type: cell-based
Reported endpoint: AUC
Numbers only.

Look over these answered cases.
CNC(=O)N1CCc2c(c(N3CCN(C(=O)NCCOCCOCCOCCOCCOCCOCCNc4ccc5c(c4)C(=O)N(C4CCC(=O)NC4=O)C5=O)c4cc(-c5cnn(C)c5)c(C(F)(F)F)cc43)nn2C2CCOCC2)C1 (stereo not given) = 24.2
CNC(=O)N1CCc2c(c(N3CCCc4cc(-c5cnn(CC(=O)NCCOCCOCCOCCOCCOCCOCCNc6ccc7c(c6)C(=O)N(C6CCC(=O)NC6=O)C7=O)c5)c(C(F)F)cc43)nn2C2CCOCC2)C1 (stereo not given) = 23
CNC(=O)N1CCc2c(c(N3CCCc4cc(-c5cnn(C)c5)c(C(F)F)cc43)nn2C2CCN(C(=O)CCOCCNc3ccc4c(c3)C(=O)N(C3CCC(=O)NC3=O)C4=O)CC2)C1 (stereo not given) = 10.3
CNC(=O)N1CCc2c(c(N3CCCc4cc(-c5cnn(CC(=O)NCCOCCNc6ccc7c(c6)C(=O)N(C6CCC(=O)NC6=O)C7=O)c5)c(C(F)F)cc43)nn2C2CCOCC2)C1 (stereo not given) = 16
CNC(=O)N1CCc2c(c(N3CCCc4cc(-c5cnn(CC(=O)NCCOCCOCCOCCOCCNc6ccc7c(c6)C(=O)N(C6CCC(=O)NC6=O)C7=O)c5)c(C(F)F)cc43)nn2C2CCOCC2)C1 (stereo not given) = 22.2
CNC(=O)N1CCc2c(c(N3CCN(C(=O)NCCOCCNc4ccc5c(c4)C(=O)N(C4CCC(=O)NC4=O)C5=O)c4cc(-c5cnn(C)c5)c(C(F)(F)F)cc43)nn2C2CCOCC2)C1 (stereo not given) = 24.9
CNC(=O)N1CCc2c(c(N3CCCc4cc(-c5cnn(C)c5)c(C(F)F)cc43)nn2C2CCN(C(=O)CCOCCOCCOCCOCCOCCOCCNc3ccc4c(c3)C(=O)N(C3CCC(=O)NC3=O)C4=O)CC2)C1 (stereo not given) = 8.1
CNC(=O)N1CCc2c(c(N3CCN(C(=O)NCCOCCOCCOCCOCCNc4ccc5c(c4)C(=O)N(C4CCC(=O)NC4=O)C5=O)c4cc(-c5cnn(C)c5)c(C(F)(F)F)cc43)nn2C2CCOCC2)C1 (stereo not given) = 25.1

# batch: return AUC for each of the 2 molecules below
1. CNC(=O)N1CCc2c(c(N3CCCc4cc(-c5cnn(C)c5)c(C(F)(F)F)cc43)nn2C2CCN(C(=O)CCOCCOCCOCCOCCNc3ccc4c(c3)C(=O)N(C3CCC(=O)NC3=O)C4=O)CC2)C1 (stereo not given)
2. CNC(=O)N1CCc2c(c(N3CCCc4cc(-c5cnn(C)c5)c(C(F)F)cc43)nn2C2CCN(C(=O)CCOCCOCCOCCOCCNc3ccc4c(c3)C(=O)N(C3CCC(=O)NC3=O)C4=O)CC2)C1 (stereo not given)

4.4
4.4

====

biological target: Protein cereblon/Histone acetyltransferase p300 (Homo sapiens) (UniProt Q09472+Q96SW2); experiment: PROTAC activity at CRBN/HiBiT-tagged p300 in human HAP1 cells assessed as induction of p300 degradation by measuring degradation rate at 1 nM measured over 24 hrs by luminescence based analysis; format: cell-based
Sequence (Q09472 2-2414 limits assumed): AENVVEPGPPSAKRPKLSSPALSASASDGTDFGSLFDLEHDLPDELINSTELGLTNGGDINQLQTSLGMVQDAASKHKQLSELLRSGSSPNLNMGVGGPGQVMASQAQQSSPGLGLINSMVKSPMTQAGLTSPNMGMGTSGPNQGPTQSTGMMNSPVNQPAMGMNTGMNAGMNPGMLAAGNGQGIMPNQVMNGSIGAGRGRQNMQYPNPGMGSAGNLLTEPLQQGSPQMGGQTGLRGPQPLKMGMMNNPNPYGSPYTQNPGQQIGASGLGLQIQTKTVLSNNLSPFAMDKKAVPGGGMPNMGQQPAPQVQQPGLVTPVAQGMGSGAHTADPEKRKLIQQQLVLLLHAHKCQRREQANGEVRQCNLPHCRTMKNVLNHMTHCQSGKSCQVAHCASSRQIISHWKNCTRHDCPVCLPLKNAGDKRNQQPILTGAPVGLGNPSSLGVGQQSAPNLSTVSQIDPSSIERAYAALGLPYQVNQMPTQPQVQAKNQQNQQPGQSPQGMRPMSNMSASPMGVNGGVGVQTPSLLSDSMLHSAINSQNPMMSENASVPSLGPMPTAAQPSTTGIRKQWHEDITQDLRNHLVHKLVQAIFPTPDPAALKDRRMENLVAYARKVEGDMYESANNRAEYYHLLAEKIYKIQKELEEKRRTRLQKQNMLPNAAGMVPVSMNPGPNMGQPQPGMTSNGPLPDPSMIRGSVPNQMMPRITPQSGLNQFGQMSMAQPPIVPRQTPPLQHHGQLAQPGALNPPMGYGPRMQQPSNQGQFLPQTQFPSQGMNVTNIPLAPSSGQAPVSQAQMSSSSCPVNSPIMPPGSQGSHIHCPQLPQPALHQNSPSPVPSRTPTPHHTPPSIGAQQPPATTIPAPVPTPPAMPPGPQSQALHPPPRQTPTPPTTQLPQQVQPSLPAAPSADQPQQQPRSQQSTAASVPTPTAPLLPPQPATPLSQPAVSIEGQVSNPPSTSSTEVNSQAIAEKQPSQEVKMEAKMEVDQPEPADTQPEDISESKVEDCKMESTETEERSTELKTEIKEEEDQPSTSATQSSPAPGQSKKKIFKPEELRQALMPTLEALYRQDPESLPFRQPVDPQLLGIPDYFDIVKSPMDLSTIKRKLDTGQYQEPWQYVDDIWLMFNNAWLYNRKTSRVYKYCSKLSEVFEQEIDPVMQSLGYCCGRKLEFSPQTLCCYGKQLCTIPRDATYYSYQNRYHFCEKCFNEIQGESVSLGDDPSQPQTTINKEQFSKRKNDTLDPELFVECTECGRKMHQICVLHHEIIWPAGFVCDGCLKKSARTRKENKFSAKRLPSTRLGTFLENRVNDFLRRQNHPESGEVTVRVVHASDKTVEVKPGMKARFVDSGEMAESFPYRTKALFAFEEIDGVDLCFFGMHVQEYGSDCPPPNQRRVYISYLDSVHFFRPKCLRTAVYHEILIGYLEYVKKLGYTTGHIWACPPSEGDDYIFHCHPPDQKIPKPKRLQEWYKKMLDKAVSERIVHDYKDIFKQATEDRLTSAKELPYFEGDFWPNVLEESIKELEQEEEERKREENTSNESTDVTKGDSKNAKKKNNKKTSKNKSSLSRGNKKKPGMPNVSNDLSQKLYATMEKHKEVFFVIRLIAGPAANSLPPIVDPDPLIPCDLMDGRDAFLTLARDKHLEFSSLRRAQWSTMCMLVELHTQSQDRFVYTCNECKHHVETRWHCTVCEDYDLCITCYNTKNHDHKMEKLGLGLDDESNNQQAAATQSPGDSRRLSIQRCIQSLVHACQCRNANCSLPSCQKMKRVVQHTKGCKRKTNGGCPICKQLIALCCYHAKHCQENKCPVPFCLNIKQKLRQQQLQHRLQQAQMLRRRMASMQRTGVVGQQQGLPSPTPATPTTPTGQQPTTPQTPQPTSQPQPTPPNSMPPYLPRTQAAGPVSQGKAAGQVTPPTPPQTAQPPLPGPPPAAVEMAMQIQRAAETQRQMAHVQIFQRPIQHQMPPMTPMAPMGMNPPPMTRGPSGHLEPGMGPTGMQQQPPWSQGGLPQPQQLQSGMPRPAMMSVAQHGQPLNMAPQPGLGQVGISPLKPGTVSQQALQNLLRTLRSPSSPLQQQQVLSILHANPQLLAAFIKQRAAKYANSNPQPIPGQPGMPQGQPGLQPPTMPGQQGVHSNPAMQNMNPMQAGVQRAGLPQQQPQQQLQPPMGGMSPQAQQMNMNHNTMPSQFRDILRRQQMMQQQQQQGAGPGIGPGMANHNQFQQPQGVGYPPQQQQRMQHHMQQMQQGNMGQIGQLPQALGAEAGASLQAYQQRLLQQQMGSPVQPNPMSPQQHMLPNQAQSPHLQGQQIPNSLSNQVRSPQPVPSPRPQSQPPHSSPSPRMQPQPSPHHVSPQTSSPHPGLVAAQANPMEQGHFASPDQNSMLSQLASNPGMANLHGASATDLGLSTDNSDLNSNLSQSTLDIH
Sequence (Q96SW2 whole entry partner): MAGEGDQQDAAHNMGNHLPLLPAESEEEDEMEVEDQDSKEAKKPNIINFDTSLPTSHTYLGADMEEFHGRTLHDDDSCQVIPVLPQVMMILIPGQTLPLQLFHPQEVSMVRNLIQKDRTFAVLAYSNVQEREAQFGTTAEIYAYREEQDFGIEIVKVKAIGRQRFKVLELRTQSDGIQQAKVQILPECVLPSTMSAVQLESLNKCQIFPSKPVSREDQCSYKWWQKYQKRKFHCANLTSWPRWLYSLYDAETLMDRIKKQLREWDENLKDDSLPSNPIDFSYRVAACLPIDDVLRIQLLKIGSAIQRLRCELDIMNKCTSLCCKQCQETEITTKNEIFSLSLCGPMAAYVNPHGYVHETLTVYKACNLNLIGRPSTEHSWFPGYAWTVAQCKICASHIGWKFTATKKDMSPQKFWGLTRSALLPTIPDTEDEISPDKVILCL
// boundary case: Activity equal to 0.2 h⁻¹ maps to class 0; strictly smaller maps to class 1

# count of solved cases: 3
CNC(=O)N1CCc2c(c(N3CCCc4cc(-c5cnn(C)c5)c(C(F)F)cc43)nn2C2CCN(C(=O)CCOCCOCCOCCOCCOCCOCCNc3ccc4c(c3)C(=O)N(C3CCC(=O)NC3=O)C4=O)CC2)C1 (stereo not given) = class 1
CNC(=O)N1CCc2c(c(N3CCCc4cc(-c5cnn(C)c5)c(C(F)F)cc43)nn2C2CCN(C(=O)CCOCCOCCOCCOCCNc3ccc4c(c3)C(=O)N(C3CCC(=O)NC3=O)C4=O)CC2)C1 (stereo not given) = class 0
CNC(=O)N1CCc2c(c(N3CCCc4cc(-c5cnn(C)c5)c(C(F)(F)F)cc43)nn2C2CCN(C(=O)CCOCCOCCOCCOCCNc3ccc4c(c3)C(=O)N(C3CCC(=O)NC3=O)C4=O)CC2)C1 (stereo not given) = class 0

Report whether reported Activity is lower than 0.2 h⁻¹ (strictly) for CNC(=O)N1CCc2c(c(N3CCCc4cc(-c5cnn(CC(=O)NCCOCCNc6ccc7c(c6)C(=O)N(C6CCC(=O)NC6=O)C7=O)c5)c(C(F)F)cc43)nn2C2CCOCC2)C1 (stereo not given)
class 1
